- measured.target: 20S proteasome extracted from rat liver (CT-L) (Rattus norvegicus, UniProt P18421+P28075)
- Construct: 20S proteasome extracted from rat liver; from tissue; host or cells: rat liver
- method: inhibition of 20S proteasome, CT-L activity (fluorescent peptide)
- Type: biochemical
- conditions: 0.2 μM; rat liver 20S proteasome, 37° C., 1 h; read-out: inhibition rates (%) CT-L
attribute.measured: inhibition at 0.2 µM (%)
Value expressed in %; do not type the unit.

// recorded inhibition at 0.2 µM for "CC(C)C[C@H](NC(=O)[C@H](Cc1ccccc1)NC(=O)NCc1ccccc1)B(O)O" : 82.1

// recorded inhibition at 0.2 µM for "CC(C)C[C@H](NC(=O)CNC(=O)Nc1cccc(OCc2ccccc2)c1)B(O)O" : 47.3

// recorded inhibition at 0.2 µM for "CC(C)C[C@H](NC(=O)[C@H](Cc1ccccc1)NC(=O)N[C@@H](Cc1ccccc1)C(=O)Nc1cnccn1)B(O)O" : 84.6

// recorded inhibition at 0.2 µM for "CC(C)C[C@H](NC(=O)N[C@@H](Cc1ccccc1)C(=O)N[C@@H](CC(C)C)C(=O)Nc1cnccn1)B1OC(C)(C)C(C)(C)O1" : 45.4

// recorded inhibition at 0.2 µM for "CC(C)C[C@H](NC(=O)N[C@@H](CC(C)C)C(=O)N[C@@H](CC(C)C)C(=O)Nc1cnccn1)B(O)O" : 5.79

// recorded inhibition at 0.2 µM for "CC(C)C[C@H](NC(=O)[C@H](Cc1ccccc1)NC(=O)Nc1cnccn1)B(O)O" : 10.5

// recorded inhibition at 0.2 µM for "COc1ccc(OC)c(CNC(=O)N[C@@H](Cc2ccccc2)C(=O)N[C@@H](CC(C)C)B(O)O)c1" : 82.1

// recorded inhibition at 0.2 µM for "CC(C)C[C@H](NC(=O)[C@H](Cc1ccccc1)NC(=O)Nc1cccc(OCc2ccccc2)c1)B(O)O" : -14.6

// recorded inhibition at 0.2 µM for "CC(C)C[C@H](NC(=O)N[C@@H](Cc1ccccc1)C(=O)Nc1cnccn1)B(O)O" : -0.67

// recorded inhibition at 0.2 µM for "COc1ccc(NC(=O)[C@H](Cc2ccccc2)NC(=O)N[C@@H](CC(C)C)B(O)O)cc1" : 2.87

// recorded inhibition at 0.2 µM for "CC(C)C[C@H](NC(=O)[C@H](Cc1ccccc1)NC(=O)NCc1cccc(Cl)c1Cl)B(O)O" : 91.9

// recorded inhibition at 0.2 µM for "COc1ccc(CNC(=O)[C@H](Cc2ccccc2)NC(=O)N[C@@H](CC(C)C)B(O)O)cc1" : 33.8

// recorded inhibition at 0.2 µM for CC(C)C[C@H](NC(=O)N[C@@H](Cc1ccccc1)C(=O)NCC1CCCO1)B(O)O (stereo partly shown) : -20.8

// recorded inhibition at 0.2 µM for "COc1ccc(CNC(=O)N[C@@H](Cc2ccccc2)C(=O)N[C@@H](CC(C)C)B(O)O)cc1" : 86.3

// recorded inhibition at 0.2 µM for "CC(C)C[C@H](NC(=O)N[C@@H](Cc1ccccc1)C(=O)Nc1cccc(OCc2ccccc2)c1)B(O)O" : -14.2

// recorded inhibition at 0.2 µM for CC(C)C[C@H](NC(=O)N[C@@H](Cc1ccccc1)C(=O)Nc1cnccn1)B1OC2C[C@H]3C[C@H](C3(C)C)[C@@]2(C)O1 (stereo partly shown) : 23.4

// recorded inhibition at 0.2 µM for CC(C)C[C@H](NC(=O)N[C@@H](Cc1ccccc1)C(=O)Nc1cccc(OCc2ccccc2)c1)B1OC2C[C@H]3C[C@H](C3(C)C)[C@@]2(C)O1 (stereo partly shown) : -17.8

// recorded inhibition at 0.2 µM for "CC(C)C[C@H](NC(=O)N[C@H](Cc1ccccc1)C(=O)Nc1cnccn1)B(O)O" : -4.19

// recorded inhibition at 0.2 µM for COc1ccc(OC)c(CNC(=O)N[C@@H](Cc2ccccc2)C(=O)N[C@@H](CC(C)C)B2OC3CC4CC(C4(C)C)[C@]3(C)O2)c1 (stereo partly shown) : 91.7
